The reported numbers originate from ChEMBL document CHEMBL1137295.

- Assay system: Human immunodeficiency virus type 1 protease (Human immunodeficiency virus 1, UniProt Q72874, Q7K)
- Assay procedure: Inhibition of wild type HIV1 protease Q7K mutant
Give measured pKi for each item. Keep answers brief.
In textbook form, pKi equals minus log to base ten of the concentration in mol/L.

Input: # query: pKi of entry CC(=O)c1cccc(N2C[C@@H](C(=O)N[C@@H](Cc3ccccc3)[C@H](O)CN(CC(C)C)S(=O)(=O)c3ccc(N)cc3)OC2=O)c1
Output: 10.49

Input: Which pKi value belongs to COc1ccc(S(=O)(=O)N(CC(C)C)C[C@@H](O)[C@H](Cc2ccccc2)NC(=O)[C@@H]2CN(c3ccc(F)c(F)c3)C(=O)O2)cc1F ?
Output: 9.46

Input: For the compound CC(C)CN(C[C@@H](O)[C@H](Cc1ccccc1)NC(=O)[C@@H]1CN(c2cccc(C(F)(F)F)c2)C(=O)O1)S(=O)(=O)c1ccc2c(c1)OCO2 , what pKi is on record?
Output: 10.80

Input: Form field: reported pKi of COc1ccc(S(=O)(=O)N(CC2CC2)C[C@@H](O)[C@H](Cc2ccccc2)NC(=O)[C@@H]2CN(c3cccc(F)c3)C(=O)O2)cc1
Output: 9.59

Input: Look up pKi for this compound: CC(C)CN(C[C@@H](O)[C@H](Cc1ccccc1)NC(=O)[C@@H]1CN(c2cccc(C(F)(F)F)c2)C(=O)O1)S(=O)(=O)c1ccc(N)cc1
Output: 10.38

Input: Which pKi value belongs to CC(C)CN(C[C@@H](O)[C@H](Cc1ccccc1)NC(=O)[C@@H]1CN(c2cccc(F)c2)C(=O)O1)S(=O)(=O)c1ccc2c(c1)OCO2 ?
Output: 9.97
